Please provide measured nuclei count for the entries that follow.
# protocol: endothelial E-selectin expression blockers – imaging, HUVEC, immunofluorescence, MLSMR starter and 10KST1 sets, primary screen (AID 487);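 further: 100% = median nuclei count of all wells on the same plate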
# cond: HUVEC TNFalpha-induced E-selectin immunofluorescence imaging, at 2 µM; measured here: cell number, toxicity
Give bare numbers, in %.

Known nuclei count results, listed for orientation:
Cc1noc(C)c1S(=O)(=O)N1CCC(C(=O)N2CCN(Cc3ccc4c(c3)OCO4)CC2)CC1    103
NCC(O)COc1ccc2c(c1)OCO2 (stereo unspecified)    103
OC(CN1CCOCC1)Cn1c(-c2cccc(Cl)c2)nc2ccccc21 (stereo unspecified)    112
CCN(CC)C(=O)C1CCC(CNS(=O)(=O)c2cccc3cccnc23)CC1 (stereo unspecified)    114
O=C(c1ccc2snnc2c1)N1CCOCC1    117
O=S(=O)(Cc1ccccc1)N1CCN(Cc2ccccc2)CC1    117

# batch size: 5; output nuclei count per entry
1. CCN(CC)c1nc2cc(OC)ccc2cc1C#N
2. CCOC(=O)c1cc(C)n(CCCN2CCOCC2)c1C
3. CC(=O)c1ccc(OCC(O)CN2CCN(Cc3ccc4c(c3)OCO4)CC2)cc1 (stereo unspecified)
4. O=C(CSc1nnc(-c2ccccn2)n1Cc1ccccc1)N1CCCC1
5. CC(=O)N1CN(C2CCCC2)Cc2c1sc1c2CCCC1

1. 114
2. 109
3. 108
4. 97.4
5. 90.6
